test: Single dose bioavailability of L-dC in the cynomologus monkey; format: in vivo, cynomolgus monkey; details: cynomolgus monkey, blood; L-dC 10 mg/kg single IV dose, n=3, mean; read-out: AUClast of L-dC
OBSERVED PROPERTY: AUC(0-t) (µM·h)
The reply should contain only the number, in µM·h.

Report AUC(0-t) for Nc1ccn([C@@H]2CC(O)[C@H](CO)O2)c(=O)n1 (stereo partly drawn) [L-dC, 2′-Deoxy-β-L-cytidine] please.
81.1

----------
assay: Single-dose bioavailability of L-dC in the woodchuck; type: in vivo; details: plasma; L-dC 10 mg/kg single PO dose, mean
OBSERVED PROPERTY: Tmax (h)
The reply should contain only the number, in h.

Report Tmax for Nc1ccn([C@@H]2CC(O)[C@H](CO)O2)c(=O)n1 (stereo partly shown) please.
3
